# study target: IKKε (Homo sapiens, UniProt Q14164)
# Construct: purchased Invitrogen PR8031B
# Sequence (Q14164 whole entry): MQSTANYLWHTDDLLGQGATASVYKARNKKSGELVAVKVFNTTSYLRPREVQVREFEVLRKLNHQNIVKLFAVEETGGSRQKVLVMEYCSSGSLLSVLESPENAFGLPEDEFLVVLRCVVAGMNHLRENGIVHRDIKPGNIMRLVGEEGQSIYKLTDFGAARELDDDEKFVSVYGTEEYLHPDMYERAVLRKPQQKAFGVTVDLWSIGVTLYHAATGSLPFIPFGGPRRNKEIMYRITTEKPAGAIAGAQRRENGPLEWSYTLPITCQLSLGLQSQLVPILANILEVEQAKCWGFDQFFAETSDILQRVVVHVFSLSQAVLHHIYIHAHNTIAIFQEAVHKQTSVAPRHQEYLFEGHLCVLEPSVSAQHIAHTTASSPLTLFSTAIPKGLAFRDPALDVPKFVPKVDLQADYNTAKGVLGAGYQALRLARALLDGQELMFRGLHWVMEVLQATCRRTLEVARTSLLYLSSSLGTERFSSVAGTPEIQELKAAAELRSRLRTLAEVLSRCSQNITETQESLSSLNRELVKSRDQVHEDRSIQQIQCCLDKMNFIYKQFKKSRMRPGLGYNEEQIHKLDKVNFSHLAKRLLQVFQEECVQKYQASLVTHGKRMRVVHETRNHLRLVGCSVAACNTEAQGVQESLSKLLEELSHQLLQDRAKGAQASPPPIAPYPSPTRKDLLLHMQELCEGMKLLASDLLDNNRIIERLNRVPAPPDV
# protocol notes: IKKε inhibition, ADP-Glo Kinase Assay
# Type: biochemical
# condition info: luminometer
measured attribute: IC50

Query: For the molecule shown here, "CN1CCN(c2ccc(C(=O)Nc3n[nH]c4ccc(C(=O)NCc5cnco5)cc34)cc2)CC1" , give the reported IC50.
Response: 0.31 µM

Query: For the molecule shown here, CC(NC(=O)c1ccc2[nH]nc(NC(=O)c3ccc(N4CCN(C)CC4)cc3)c2c1)c1ccccn1 (stereo not drawn) , give the reported IC50.
Response: 0.11 µM

Query: For the molecule shown here, "CN(C)CCNc1ccc(C(=O)Nc2n[nH]c3ccc(C(=O)NCc4cccs4)cc23)cc1" , give the reported IC50.
Response: 0.096 µM
